Test system: UO-31 renal
Experiment: NCI tumour cell line growth inhibition, 48 h
ASSAY_METRIC: TGI

[
  {
    "MOLECULE": "[N-]=[N+]=NC1(c2ccccc2)C(=O)Nc2ccccc2C1=O (stereo not drawn)",
    "ASSAY_TARGET": "UO-31 renal",
    "RESULT": "73.8 µM"
  },
  {
    "MOLECULE": "O=c1[nH]c(=O)n(C2CC(O)C(CO)O2)cc1C#Cc1ccc(C(F)(F)F)cc1 (stereo not drawn)",
    "ASSAY_TARGET": "UO-31 renal",
    "RESULT": "> 100 µM"
  },
  {
    "MOLECULE": "COc1ccc(C[C@H]2C[C@@H](O)[C@@H](C)C/C=C/Cc3cccc(O)c3C(=O)O2)cn1",
    "ASSAY_TARGET": "UO-31 renal",
    "RESULT": "66.1 µM"
  },
  {
    "MOLECULE": "C/C(=N\\NS(=O)(=O)c1ccc(C)cc1)c1ccc[n+]([O-])n1",
    "ASSAY_TARGET": "UO-31 renal",
    "RESULT": "> 100 µM"
  },
  {
    "MOLECULE": "Oc1cc2cc(-c3ccccc3)[nH]c2c2ccccc12",
    "ASSAY_TARGET": "UO-31 renal",
    "RESULT": "> 92.6 µM"
  },
  {
    "MOLECULE": "O=C(CCCCCCCCC(=O)OCC1OC(n2cnc3c(=O)[nH]cnc32)C(O)C1O)OCC1OC(n2cnc3c(=O)[nH]cnc32)C(O)C1O (stereo not drawn)",
    "ASSAY_TARGET": "UO-31 renal",
    "RESULT": "> 100 µM"
  },
  {
    "MOLECULE": "CC(=O)NC1C(OCc2ccccc2)OC(COC(=O)CCCCCCCCCCNC(=O)c2cccc3c(=O)c4ccccc4[nH]c23)C(O)C1OC(C)C(=O)NC(C)C(=O)NC(CCC(N)=O)C(N)=O (stereo not drawn)",
    "ASSAY_TARGET": "UO-31 renal",
    "RESULT": "> 100 µM"
  },
  {
    "MOLECULE": "Oc1c2cccc1Cc1cccc3c1OCCOCCOCCOCCOc1c(cccc1Cc1cccc(c1O)C3)C2",
    "ASSAY_TARGET": "UO-31 renal",
    "RESULT": "> 100 µM"
  }
]

----------
Tested on: COLO 205 colon
Assay: NCI tumour cell line growth inhibition, 48 h; in the data active = GI50 below about 0.43 µM; inactive = the rest
Outcomes: y = active, n = inactive

[
  {
    "COMPOUND": "CCOC(=O)c1[nH]c2c(c1C)-c1[nH]c(=O)c(S(=O)(=O)c3ccccc3)cc1SC2",
    "CLASS_ASSIGNMENT": "n"
  },
  {
    "COMPOUND": "COc1cccc(-c2nn(-c3ccccc3)cc2-c2ccnc(NCCNC(=O)Nc3ccc(Cl)c(Cl)c3)c2)c1",
    "CLASS_ASSIGNMENT": "n"
  },
  {
    "COMPOUND": "O=C1c2c(O)cccc2C(C(=O)CCCCC(=O)C2c3cccc(O)c3C(=O)c3c(O)cccc32)c2cccc(O)c21",
    "CLASS_ASSIGNMENT": "n"
  },
  {
    "COMPOUND": "CCN(CC)CCOc1ccc(/C=C2\\C[C@H]3[C@@H]4CC=C5C[C@@H](OC(C)=O)CC[C@]5(C)[C@H]4CC[C@]3(C)[C@H]2OC(C)=O)cc1OC",
    "CLASS_ASSIGNMENT": "n"
  },
  {
    "COMPOUND": "COC(=O)c1cc(Nc2ccc(O)c3c2C(=O)c2c([N+](=O)[O-])ccc(O)c2C3=O)cc(C(=O)OC)c1",
    "CLASS_ASSIGNMENT": "n"
  },
  {
    "COMPOUND": "CCCCCCCCCCCCCCCC[N+]1(CC)CCCC1",
    "CLASS_ASSIGNMENT": "y"
  },
  {
    "COMPOUND": "O=C1c2cccnc2C(=O)c2c1c(C(=O)OCCCN1CCOCC1)c1ccccn21",
    "CLASS_ASSIGNMENT": "y"
  },
  {
    "COMPOUND": "Cc1ccc(C2=Nc3c(N)ncnc3NC(c3cccc(Nc4ccnc5cc(C(F)(F)F)ccc45)c3)C2)cc1 (centres undefined)",
    "CLASS_ASSIGNMENT": "n"
  },
  {
    "COMPOUND": "O=C1OC(c2ccc(O)cc2)(c2ccc(O)cc2)c2cccc3cccc1c23",
    "CLASS_ASSIGNMENT": "n"
  }
]

----------
Tested on: RPMI-8226 leukemia
Assay: NCI tumour cell line growth inhibition, 48 h; in the data active = GI50 below about 0.43 µM; inactive = the rest
Labels: active, inactive

[
  {
    "COMPOUND": "Nc1ncnc2occ(-c3ccc(NC(=O)Nc4cc(C(F)(F)F)cc(C(F)(F)F)c4)cc3)c12",
    "CLASS_ASSIGNMENT": "inactive"
  },
  {
    "COMPOUND": "COc1ccccc1C1C(C#N)=C(N)OC2=C1C(=O)CCC2 (centres undefined)",
    "CLASS_ASSIGNMENT": "inactive"
  },
  {
    "COMPOUND": "O=C1C=C(Nc2cccc(Br)c2)c2ccccc2C1=O",
    "CLASS_ASSIGNMENT": "inactive"
  },
  {
    "COMPOUND": "CC(C)(C)n1cc(-c2ccnc(NCCNS(=O)(=O)c3ccc(Br)cc3)c2)c(-c2cccc(O)c2)n1",
    "CLASS_ASSIGNMENT": "inactive"
  },
  {
    "COMPOUND": "O=C1c2cccnc2C(=O)c2c1c(C(=O)OCCCN1CCOCC1)c1ccccn21",
    "CLASS_ASSIGNMENT": "active"
  },
  {
    "COMPOUND": "N#CC1c2ccccc2-c2ccccc2N1C(=O)c1ccccc1 (centres undefined)",
    "CLASS_ASSIGNMENT": "inactive"
  },
  {
    "COMPOUND": "COc1cc(C2C3=C(COC3=O)N(CCO)c3cc4c(cc32)CCC4)cc(OC)c1O (centres undefined)",
    "CLASS_ASSIGNMENT": "inactive"
  },
  {
    "COMPOUND": "CC(C)OP(=O)(OC(C)C)C(N(C)C)P(=O)(OC(C)C)OC(C)C.[Cl][Sn]([Cl])([Cl])[c]1ccccc1",
    "CLASS_ASSIGNMENT": "inactive"
  },
  {
    "COMPOUND": "COC(=O)[C@H](Cc1ccccc1)NC(=O)c1csc([C@@H](C[C@H](C(C)C)N(C)C(=O)[C@@H](NC(=O)[C@H]2CCCCN2C)C2CC2)OC(C)=O)n1",
    "CLASS_ASSIGNMENT": "active"
  }
]

----------
Tested on: SF-295 CNS
Assay: NCI tumour cell line growth inhibition, 48 h
ASSAY_METRIC: TGI

[
  {
    "COMPOUND": "NC1=NS(=O)(=O)N=C(N)C1=Cc1ccc([N+](=O)[O-])o1",
    "RESULT": "61.8 µM"
  },
  {
    "COMPOUND": "Brc1ccc2c(c1)C1(c3cc(Br)ccc3-2)c2cc(Br)ccc2-c2ccc(Br)cc21",
    "RESULT": "> 100 µM"
  },
  {
    "COMPOUND": "CCCCn1cc(C(=O)O)c(=O)c2c3sccc3ccc21",
    "RESULT": "> 100 µM"
  },
  {
    "COMPOUND": "COc1ccc(C2=CC(c3cc(OC)c(OC)c(OC)c3)n3ncnc3N2)cc1 (stereo unspecified)",
    "RESULT": "0.0742 µM"
  },
  {
    "COMPOUND": "CCCCc1ccc2[n+](c1)C(C(=O)OCC)=PC2 (stereo unspecified)",
    "RESULT": "> 100 µM"
  },
  {
    "COMPOUND": "O=C(Cn1c2ccc(Br)cc2c2nc3ccccc3nc21)NC1CCCCC1",
    "RESULT": "> 100 µM"
  },
  {
    "COMPOUND": "O=CNc1cccc2c3c([nH]c12)CCCCCC3",
    "RESULT": "> 100 µM"
  },
  {
    "COMPOUND": "CC1CN=C(c2cccc(OCc3ccc(COc4cccc(C5=NCC(C)N5)c4)cc3)c2)N1 (stereo unspecified)",
    "RESULT": "> 100 µM"
  },
  {
    "COMPOUND": "CCN(CC)CCOc1ccc(/C=C2\\C[C@H]3[C@@H]4CC=C5C[C@@H](OC(C)=O)CC[C@]5(C)[C@H]4CC[C@]3(C)[C@H]2OC(C)=O)cc1OC",
    "RESULT": "24.3 µM"
  },
  {
    "COMPOUND": "COc1ccc2cccc(C(=N)c3ccc(C)c4c3CCC4)c2c1",
    "RESULT": "17.7 µM"
  },
  {
    "COMPOUND": "Cc1c(C(C)C)cc(OCCO)cc1C(C)C",
    "RESULT": "> 100 µM"
  },
  {
    "COMPOUND": "O=C(/C=C/N1CCN(c2cccc(C(F)(F)F)c2)CC1)c1ccc(Cl)cc1Cl",
    "RESULT": "32.4 µM"
  },
  {
    "COMPOUND": "O=C1c2ccccc2-c2ccc(NC(=O)C3CCCCC3C(=O)O)cc21 (stereo unspecified)",
    "RESULT": "> 100 µM"
  },
  {
    "COMPOUND": "C/C(=C(/c1ccc(O)cc1)c1ccc(OCCN2CCCC2)cc1)c1ccccc1",
    "RESULT": "4.19 µM"
  },
  {
    "COMPOUND": "COc1cn2c(cc1=O)COc1ccc(-c3ccccc3)cc1-2",
    "RESULT": "> 100 µM"
  },
  {
    "COMPOUND": "N#Cc1c2c(c(N=[N+]=[N-])n3c1nc1ccccc13)CCCC2",
    "RESULT": "4.94 µM"
  },
  {
    "COMPOUND": "CN(C)c1ccc(C(=NNC(=O)c2cc3ccccc3[nH]2)c2ccc(N(C)C)cc2)cc1",
    "RESULT": "5.52 µM"
  },
  {
    "COMPOUND": "CCOC(=O)c1cc(-c2ccc(OC)c(OC)c2)c[nH]1",
    "RESULT": "> 10 µM"
  },
  {
    "COMPOUND": "COc1ccc(CNc2nc(NCc3ccc(OC)cc3)nc(NC3CCCCC3)n2)cc1",
    "RESULT": "4.14 µM"
  },
  {
    "COMPOUND": "Cc1cs/c(=N\\C(P(=O)(O)O)P(=O)(O)O)n1C",
    "RESULT": "> 100 µM"
  },
  {
    "COMPOUND": "Cc1nnc([S-])s1.[Au+].c1ccc([PH+](c2ccccc2)c2ccccc2)cc1",
    "RESULT": "3.21 µM"
  }
]
